# ASSAY SUMMARY: Half-life in Squirrel monkey
# Assay type: ADME
# TEST CONDITIONS: in vivo
Here the recorded half-life is given for each entry.
MEASURED PARAMETER: half-life (h)

COMPOUND	REPORTED RELATION	NUMBER
Cc1c[n+]([O-])ccc1CC(c1ccc(C(O)(C(F)(F)F)C(F)(F)F)cc1)c1ccc(OC(F)F)c(OC(F)F)c1 (stereo in doubt)	=	36
[O-][n+]1ccc(CC(c2ccc(C(O)(C(F)(F)F)C(F)(F)F)cc2)c2ccc(OC(F)F)c(OC(F)F)c2)cc1 (configuration not stated)	>	48

---

# ASSAY SUMMARY: Cmax in ferrets after 30mg/kg oral dose
# Format: ADME, organism-based, Mustela putorius furo
# Parameters: dose 30 mg/kg, route oral
# TEST CONDITIONS: ferret, in vivo
MEASURED PARAMETER: Cmax (µM)

MOLECULE	NUMBER
Cc1c[n+]([O-])ccc1CC(c1ccc(C(O)(C(F)(F)F)C(F)(F)F)cc1)c1ccc(OC(F)F)c(OC(F)F)c1 (stereo in doubt)	10
[O-][n+]1ccc(CC(c2ccc(C(O)(C(F)(F)F)C(F)(F)F)cc2)c2ccc(OC(F)F)c(OC(F)F)c2)cc1 (configuration not stated)	14
